All figures here come from PubChem BioAssay AID686970.

- TEST SUMMARY: qHTS for induction of synthetic lethality in tumor cells producing 2HG: qHTS for the HT-1080-NT fibrosarcoma cell line;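 also: NT is the 2HG producing partner of a matched IDH1 knockdown line; nearly all actives have a fitted effect of over 55% in size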
- RUN CONDITIONS: HT-1080-NT fibrosarcoma viability, CellTiter-Glo ATP luminescence, 48 h; series mostly up to 46.1 µM
The campaign covered roughly 360,000 compounds. About 6,000 (1.7%) were called active. About 8% were inconclusive and are not listed. Calls follow the shape of the dose curve; as a rule, active = well fitted cell-killing curve with a large enough effect; inconclusive = small, poorly fitted or top-dose-only effect, or effect the other way; inactive = flat fitted curve, though single readings scatter. This is one part of a sample in which actives are shown more often than they occur.
I would appreciate it if you answered using one of these outcomes: active, inactive

Answered examples (4):
MOLECULE: CCOC(=O)[C@]12CCCC=C1N(Cc1ccc3c(c1)OCO3)C(=O)[C@H](CC(=O)N1CCN(C(=O)c3ccco3)CC1)C2
QUALITATIVE LABEL: inactive

MOLECULE: CC(OC(=O)c1ccc(NC(=O)CC#N)cc1)C(=O)Nc1ccc(S(=O)(=O)N2CCCC2)cc1 (stereo not given)
QUALITATIVE LABEL: inactive

MOLECULE: Cc1cc(C)nc(SCc2ccccc2C#N)n1
QUALITATIVE LABEL: inactive

MOLECULE: Cc1cc(C)nc(S/C=C/C(=O)c2ccccc2)n1
QUALITATIVE LABEL: active

Moving on to the next molecule.
Ask: Look up the recorded call for COc1ccc(Cl)cc1NC(=O)C1CC(=O)N(c2ccc(F)cc2)C1 (stereo not given) in this test.
Reply: inactive
